Recorded IC50 by entry
# target: T1, C-terminally 6x Histidine-tagged Beta-Catenin (aa 134-668, 59 KD) (UniProt P35222 134-668)
# T1 construct: range 134-668; Armadillo repeat region
# T1 sequence: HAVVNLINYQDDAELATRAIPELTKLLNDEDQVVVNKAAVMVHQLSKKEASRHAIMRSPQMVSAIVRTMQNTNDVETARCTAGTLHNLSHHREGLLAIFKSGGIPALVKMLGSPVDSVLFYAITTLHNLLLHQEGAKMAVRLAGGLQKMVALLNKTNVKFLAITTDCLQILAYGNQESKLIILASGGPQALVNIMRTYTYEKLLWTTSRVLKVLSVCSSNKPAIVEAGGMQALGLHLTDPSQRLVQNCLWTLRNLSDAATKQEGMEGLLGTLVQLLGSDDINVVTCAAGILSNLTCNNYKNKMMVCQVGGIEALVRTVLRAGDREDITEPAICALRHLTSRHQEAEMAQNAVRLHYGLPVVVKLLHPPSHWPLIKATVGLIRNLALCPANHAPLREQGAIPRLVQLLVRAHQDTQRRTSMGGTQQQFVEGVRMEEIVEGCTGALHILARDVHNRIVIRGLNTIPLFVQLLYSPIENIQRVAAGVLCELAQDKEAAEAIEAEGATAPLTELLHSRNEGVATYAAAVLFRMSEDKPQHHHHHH
# experiment.summary: competitive fluorescence polarization, FAM-labelled linear probe as competitor, His-tagged beta-catenin 134-668
Bridges are numbered along the chain shown (N, C = ends). [ ]: non-standard residue; d: D form. R8 = C=CCCCCCC[C@@](C)(N)C(=O)O; S5 = C=CCCC[C@](C)(N)C(=O)O

These solved cases illustrate the format of a correct answer.
Ac-RNLADVK[S5]SLV[S5]ES-NH2 (staple 8-12; SMILES CC(=O)N[C@@H](CCCNC(=N)N)C(=O)N[C@@H](CC(N)=O)C(=O)N[C@@H](CC(C)C)C(=O)N[C@@H](C)C(=O)N[C@@H](CC(=O)O)C(=O)N[C@H](C(=O)N[C@@H](CCCCN)C(=O)N[C@@]1(C)CCCC=CCCC[C@@](C)(C(=O)N[C@@H](CCC(=O)O)C(=O)N[C@@H](CO)C(N)=O)NC(=O)[C@H](C(C)C)NC(=O)[C@H](CC(C)C)NC(=O)[C@H](CO)NC1=O)C(C)C, also called Ac-RNLADVK$SLV$ES-NH2) [SP4] : ≥ 100 µM
Ac-RDLA[R8]VKSSLV[S5]QS-NH2 (staple 5-12; SMILES CC(=O)N[C@@H](CCCNC(=N)N)C(=O)N[C@@H](CC(=O)O)C(=O)N[C@@H](CC(C)C)C(=O)N[C@@H](C)C(=O)N[C@]1(C)CCCCCCC=CCCC[C@@](C)(C(=O)N[C@@H](CCC(N)=O)C(=O)N[C@@H](CO)C(N)=O)NC(=O)[C@H](C(C)C)NC(=O)[C@H](CC(C)C)NC(=O)[C@H](CO)NC(=O)[C@H](CO)NC(=O)[C@H](CCCCN)NC(=O)[C@H](C(C)C)NC1=O, also called Ac-RDLA$r8VKSSLV$QS-NH2) [SP7] : ≥ 100 µM
Ac-RDLANVI[S5]SLV[S5]ES-NH2 (staple 8-12; SMILES CC[C@H](C)[C@H](NC(=O)[C@@H](NC(=O)[C@H](CC(N)=O)NC(=O)[C@H](C)NC(=O)[C@H](CC(C)C)NC(=O)[C@H](CC(=O)O)NC(=O)[C@H](CCCNC(=N)N)NC(C)=O)C(C)C)C(=O)N[C@@]1(C)CCCC=CCCC[C@@](C)(C(=O)N[C@@H](CCC(=O)O)C(=O)N[C@@H](CO)C(N)=O)NC(=O)[C@H](C(C)C)NC(=O)[C@H](CC(C)C)NC(=O)[C@H](CO)NC1=O, also called Ac-RDLANVI$SLV$ES-NH2) [SP32] : ≥ 100 µM

Given item Ac-SA[S5]RDL[S5]NVKSSLV-NH2 (staple 3-7; SMILES CC(=O)N[C@@H](CO)C(=O)N[C@@H](C)C(=O)N[C@@]1(C)CCCC=CCCC[C@@](C)(C(=O)N[C@@H](CC(N)=O)C(=O)N[C@H](C(=O)N[C@@H](CCCCN)C(=O)N[C@@H](CO)C(=O)N[C@@H](CO)C(=O)N[C@@H](CC(C)C)C(=O)N[C@H](C(N)=O)C(C)C)C(C)C)NC(=O)[C@H](CC(C)C)NC(=O)[C@H](CC(=O)O)NC(=O)[C@H](CCCNC(=N)N)NC1=O, also called Ac-SA$RDL$NVKSSLV-NH2) [SP43] , the value recorded as its IC50 is ≥ 100 µM

Measured IC50, Ac-LGANDELISFKDEGEQEEKSS-NH2 (Linear, not crosslinked) [SP15] : 6.08 µM

Entry Ac-SA[S5]RDL[S5]NVKSSLV-NH2 (staple 3-7; SMILES CC(=O)N[C@@H](CO)C(=O)N[C@@H](C)C(=O)N[C@@]1(C)CCCC=CCCC[C@@](C)(C(=O)N[C@@H](CC(N)=O)C(=O)N[C@H](C(=O)N[C@@H](CCCCN)C(=O)N[C@@H](CO)C(=O)N[C@@H](CO)C(=O)N[C@@H](CC(C)C)C(=O)N[C@H](C(N)=O)C(C)C)C(C)C)NC(=O)[C@H](CC(C)C)NC(=O)[C@H](CC(=O)O)NC(=O)[C@H](CCCNC(=N)N)NC1=O, also called Ac-SA$RDL$NVKSSLV-NH2) [SP54] — recorded IC50 = ≥ 100 µM

Form: binder = LGANDELISFADEGAQEEKSSNNSSAEADLAAVKSSLV (not fully specified; N-terminal acetyl; C-terminal amide; $ = (S)-alpha-(2'-pentenyl)alanine at positions 11 and 15 (first crosslink) and 28 and 32 (second crosslink), each pair joined by an all-carbon crosslinker with one double bond) [SP38] ; IC50 = 0.083 µM

IC50 for Ac-SA[S5]RNL[S5]DVKSSLV-NH2 (staple 3-7; SMILES CC(=O)N[C@@H](CO)C(=O)N[C@@H](C)C(=O)N[C@@]1(C)CCCC=CCCC[C@@](C)(C(=O)N[C@@H](CC(=O)O)C(=O)N[C@H](C(=O)N[C@@H](CCCCN)C(=O)N[C@@H](CO)C(=O)N[C@@H](CO)C(=O)N[C@@H](CC(C)C)C(=O)N[C@H](C(N)=O)C(C)C)C(C)C)NC(=O)[C@H](CC(C)C)NC(=O)[C@H](CC(N)=O)NC(=O)[C@H](CCCNC(=N)N)NC1=O, also called Ac-SA$RNL$DVKSSLV-NH2) [SP55] is ≥ 100 µM

Entry Ac-VERGLANVK[S5]SLV[S5]ES-NH2 (staple 10-14; SMILES CC(=O)N[C@H](C(=O)N[C@@H](CCC(=O)O)C(=O)N[C@@H](CCCNC(=N)N)C(=O)NCC(=O)N[C@@H](CC(C)C)C(=O)N[C@@H](C)C(=O)N[C@@H](CC(N)=O)C(=O)N[C@H](C(=O)N[C@@H](CCCCN)C(=O)N[C@@]1(C)CCCC=CCCC[C@@](C)(C(=O)N[C@@H](CCC(=O)O)C(=O)N[C@@H](CO)C(N)=O)NC(=O)[C@H](C(C)C)NC(=O)[C@H](CC(C)C)NC(=O)[C@H](CO)NC1=O)C(C)C)C(C)C) [SP36] , IC50 reported as ≥ 100 µM
